Recorded TGI by entry
Tested on: UACC-257 melanoma
Experiment: NCI tumour cell line growth inhibition, 48 h

| Compound | TGI |
| --- | --- |
| CC1(C)OB(c2ccc(N(CCOS(C)(=O)=O)CCOS(C)(=O)=O)cc2)OC1(C)C | > 60.5 µM |
| Cc1ccccc1/C=C/c1csnn1 | > 100 µM |
| C/C(=N\Nc1ccccc1)c1sc(-c2nc(C)c(/C(C)=N/Nc3ccccc3)s2)nc1C | > 70.4 µM |
| COc1cccc(/C=N/[N-]C(=O)c2ccncc2)c1[O-].[Mn+2].[OH3+] | 96.2 µM |
| COC(=O)C1OC(O[C@H]2CC[C@]3(C)[C@H]4CC=C5[C@@H]6CC(C)(C)CC[C@]6(C(=O)OC)CC[C@@]5(C)[C@]4(C)CC[C@H]3C2(C)C)C(O)C(O)C1O (some centres not stated) | 35.4 µM |
| Nc1n[n+]([O-])c2cc([N+](=O)[O-])ccc2[n+]1[O-] | 27.1 µM |
| NC(N)=NN=c1c(=O)c2ccccc2c1=O | 28.9 µM |
| N#CCCN(CCC#N)c1ccc(/C=C(/NC(=O)c2cc([N+](=O)[O-])ccc2Cl)C(=O)N=[N+]=[N-])cc1 | > 100 µM |
| O=C1/C(=C/c2cccnc2)SC(=S)N1Cc1ccco1 | > 31.5 µM |
| O=[N+]([O-])c1ccc(CSc2nn(Cc3ccc([N+](=O)[O-])cc3)cc3ncnc2-3)cc1 | > 100 µM |
| NC1=NN(c2ccccc2)C(=O)C1C(=O)C(=O)Nc1ccc(Cl)cc1 (configuration not stated) | > 100 µM |
| C[C@@H](C1CC[C@H]2[C@@H]3[C@@H]4O[C@@H]4[C@@]4(O)CC=CC(=O)[C@]4(C)[C@H]3C[C@H](O)[C@]12C)[C@H]1C[C@]2(C)O[C@]2(C)C(=O)O1 (some centres not stated) | > 100 µM |
| Oc1cc(O)c2c(c1)O[C@H](c1ccc(O)c(O)c1)[C@@H](O)C2 | > 100 µM |
| CCCCC(C(=O)C(=O)Nc1ccc(C)cc1C)C(=O)C(C)C (configuration not stated) | > 100 µM |
| CC(=O)Nc1ccccc1-c1nc2ccccc2nc1-c1ccccc1 | > 100 µM |
| N#Cc1ncc(C(Cl)Cl)nc1Cl | 2.99 µM |
| C/C=C/CC(C(=O)OCC)(N(C)C(=O)OC(C)(C)C)S(=O)(=O)c1ccc(C)cc1 (configuration not stated) | > 100 µM |
| O/N=C1/CCCC/C1=C/C=C/c1ccccc1 | 64 µM |
| O=C(NN1C(=O)C(Cl)C1c1cccc(O)c1)c1ccccc1O (configuration not stated) | > 100 µM |
| Cc1ccc(C2(O)c3ccccc3C(=O)N(C)C2(O)c2ccc(C)cc2)cc1 (configuration not stated) | > 100 µM |
| COc1cc2c(Oc3ccc(NC(=O)C4(C(=O)Nc5ccc(F)cc5)CC4)cc3F)ccnc2cc1OCCCN1CCOCC1 | 2.78 µM |
| O=C(O)C1C2C=CC(O2)C1C(=O)NCc1cccnc1 (configuration not stated) | > 100 µM |
| c1ccc(-c2csc3c2-n2cccc2C3N2CCCC2)cc1 (configuration not stated) | 39.9 µM |
| NC(CCSCC(F)(F)F)C(=O)O (configuration not stated) | > 100 µM |
| CC(=O)NNc1nc(C)c(C(=O)NNC(=O)C(=O)Nc2ccc(Cl)c([N+](=O)[O-])c2)s1 | > 100 µM |
| C/C=C1\CC(C(=O)OCC)CCCCCCC1=O (configuration not stated) | > 100 µM |
| CCCCCCCCCCC(=O)CCCCCCC(=O)O | > 100 µM |

----------
Test system: HCT-15 colon
Assay: NCI tumour cell line growth inhibition, 48 h; in the data active = GI50 below about 0.43 µM; inactive = the rest
Outcomes: true (1) = active, false (0) = inactive

| Compound | Class name |
| --- | --- |
| COc1ccccc1-n1cnc(N)c1C(=O)c1cc(OC)c(OC)c(OC)c1 | false (0) |
| COc1ccc(-n2cc(-c3cc(OC)c(OC)c(OC)c3)nc2SCc2ccc(Cl)cc2)cc1OC | false (0) |
| COc1ccc2[nH]c(Cl)c(/C=C3/C(=O)Nc4ccccc43)c2c1 | false (0) |
| C=CC(=O)N[C@@H]1CN(c2nc(Nc3cn(C)nc3OC)c3ncn(C)c3n2)C[C@H]1F | false (0) |
| CN1CCN(CCCOc2cccc3nc(Nc4cc(Cl)cc(Cl)c4)ccc23)CC1 | false (0) |
| O=C(NC1CCN(Cc2ccccc2)CC1)c1cc(-c2cccnc2)nc2ccc(Cl)cc12 | false (0) |
| CN(C)c1ccc(/C=C/C(=O)c2ccc(Nc3nc(Nc4ccc(F)cc4)nc(Nc4ccc(F)cc4)n3)cc2)cc1 | false (0) |
| Cc1cccc2c(C3=C(c4cn(C)c5ccccc45)C(=O)NC3=O)cn(C)c12 | false (0) |
| Cc1c(C)c2c(c(C)c1OC(=O)CCC(=O)[O-])CCC(C)(CCCCCCCCCCC[P+](c1ccccc1)(c1ccccc1)c1ccccc1)O2 (stereo not given) | false (0) |
| CC/C=C\C[C@H]1C/C=C2/C(=O)C=C[C@H]2C/C=C\CCCC(=O)O1 | false (0) |
| COc1ccc(-c2nn(-c3cccc(Cl)c3)cc2/C=C2\NC(=S)N(c3ccc(Cl)cc3)C2=O)cc1 | false (0) |
| Cc1cc2c(cc1Cl)SC(N(c1ccccc1Cl)S(=O)(=O)c1ccc(Br)s1)=NS2(=O)=O | false (0) |
| C[C@@H]1CC[C@H]2[C@@H](C)C(O)O[C@@H]3O[C@]4(C)CC[C@@H]1[C@]32OO4 (stereo not given in full) | true (1) |
| Nc1nc(N)c2c(n1)NC(c1sc(Cl)nc1Cl)CC(c1ccccc1)=N2 (stereo not given) | false (0) |
| Cc1nc2ccccn2c1NC(=O)NN1C(=O)CSC1c1ccc(Cl)cc1 (stereo not given) | false (0) |
| CNC(=O)c1cc(Oc2ccc3nc(NC(=O)Nc4ccc(CN5CCOCC5)c(C(F)(F)F)c4)sc3c2)ccn1 | false (0) |
| CC(C)C[C@H](CC(=O)O)C(=O)N[C@@H](Cc1c[nH]c2ccccc12)C(=O)N[C@@H](C)c1ccccc1 | false (0) |
| Cc1c2cnccc2c(C)c2c1c1cc(O)ccc1n2C(C)C | false (0) |
| OCC#CCOCC#Cc1ccccc1C#CCOCC#CCO | false (0) |
| O=C(Nc1ccc(OS(=O)(=O)c2ccc(F)cc2)cc1)C12CC3CC(CC(C3)C1)C2 | false (0) |

----------
System: 786-0 renal
Assay: NCI tumour cell line growth inhibition, 48 h
Result type: TGI

| Molecule | Observed measurement |
| --- | --- |
| COc1ccc(-c2nn(-c3cccc(Cl)c3)cc2/C=C2\NC(=S)N(c3ccc(Cl)cc3)C2=O)cc1 | > 25 µM |
| [N-]=[N+]=CC(=O)C1(C(=O)C=[N+]=[N-])CC1 | > 100 µM |
| Cc1cc(F)c(C(=O)Nc2cccc(-c3nncn3C(C)C)n2)cc1-n1cnc(C2CC2)c1 | > 100 µM |
| CCCCC(C(=O)C(=O)Nc1ccc(C)cc1C)C(=O)C(C)C (stereo not given) | > 100 µM |
| O=[N+]([O-])c1ccc(CSc2nn(Cc3ccc([N+](=O)[O-])cc3)cc3ncnc2-3)cc1 | > 100 µM |

----------
Each entry below carries its reported TGI.
Tested on: MCF7 breast
Assay: NCI tumour cell line growth inhibition, 48 h

| Query smiles | Tested system | TGI |
| --- | --- | --- |
| CC(=O)Nc1ccc(NC(=O)CC(=O)Nc2ccc(NC(C)=O)cc2)cc1 | MCF7 breast | > 100 µM |
| COc1ccc(C(=O)/C=C/c2sc(Cl)nc2Cl)cc1 | MCF7 breast | 4 µM |
| CCN(C(=O)N1CCN(c2cc3c(cc2F)c(=O)c(C(=O)O)cn3C2CC2)CC1)c1nc(-c2ccccc2)cs1 | MCF7 breast | > 100 µM |
| O=c1oc2ccc([N+](=O)[O-])cc2nc1/C=C(\O)c1ccccc1 | MCF7 breast | > 100 µM |
| Cc1cc2c(cc1Cl)SC(N(c1ccccc1Cl)S(=O)(=O)c1ccc(Br)s1)=NS2(=O)=O | MCF7 breast | 28.8 µM |

----------
Test system: SR leukemia
Assay: NCI tumour cell line growth inhibition, 48 h
TGI listing for selected compounds.
Result type: TGI

| Compound | Result type | Observed measurement |
| --- | --- | --- |
| O=C(Nc1cccc(C(F)(F)F)c1)C(=O)C(C(=O)c1ccc(Cl)c(Cl)c1)C1OC(=O)c2ccccc21 (stereo not given) | TGI | > 100 µM |
| Cc1ccc(S(=O)(=O)N(CC(O)COc2ccccc2)c2c(F)c(F)cc(F)c2F)cc1 (stereo not given) | TGI | 28.5 µM |
| Oc1cc(O)c2c(c1)O[C@H](c1ccc(O)c(O)c1)[C@@H](O)C2 | TGI | > 100 µM |
| O=C1CC(c2ccc(Cl)cc2)C2(C(=O)NC(=S)NC2=O)C(c2ccc(Cl)cc2)C1 (stereo not given) | TGI | > 100 µM |
| Nc1nc(Cl)cc(NCC2(CO)CCCCC2)n1 | TGI | > 100 µM |
